Molecular target: RPS6KA6 KD1 (human) (UniProt Q9UK32)
Sequence (Q9UK32 whole entry, looked up): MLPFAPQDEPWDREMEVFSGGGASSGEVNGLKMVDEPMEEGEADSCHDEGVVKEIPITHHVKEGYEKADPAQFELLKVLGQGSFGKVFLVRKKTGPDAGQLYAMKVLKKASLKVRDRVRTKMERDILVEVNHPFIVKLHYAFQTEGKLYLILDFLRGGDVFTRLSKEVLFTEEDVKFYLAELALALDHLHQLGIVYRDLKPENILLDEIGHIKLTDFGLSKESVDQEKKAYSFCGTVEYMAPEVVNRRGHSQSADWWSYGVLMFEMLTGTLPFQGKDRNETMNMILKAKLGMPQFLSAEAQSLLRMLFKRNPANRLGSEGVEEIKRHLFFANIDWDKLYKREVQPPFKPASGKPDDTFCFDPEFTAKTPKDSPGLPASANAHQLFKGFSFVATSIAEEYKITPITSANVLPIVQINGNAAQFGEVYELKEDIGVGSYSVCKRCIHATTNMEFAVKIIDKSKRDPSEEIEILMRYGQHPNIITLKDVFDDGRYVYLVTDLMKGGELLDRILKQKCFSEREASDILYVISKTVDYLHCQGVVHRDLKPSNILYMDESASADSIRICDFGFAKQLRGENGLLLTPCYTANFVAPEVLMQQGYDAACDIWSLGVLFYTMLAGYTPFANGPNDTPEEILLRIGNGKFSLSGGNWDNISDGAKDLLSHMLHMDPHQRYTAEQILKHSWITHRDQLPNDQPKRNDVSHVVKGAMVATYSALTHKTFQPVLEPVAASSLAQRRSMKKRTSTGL
Test: split-luciferase competition binding
Details: compound 10.0 µM
measured quantity: inhibition (%)

- CC(C)(C)n1nc(-c2cccc3ccccc23)c2c(N)ncnc21: 4
- CO[C@@H]1[C@H](N(C)C(=O)c2ccccc2)C[C@H]2O[C@]1(C)n1c3ccccc3c3c4c(c5c6ccccc6n2c5c31)C(=O)NC4: 75
- CC(C)(C)n1nc(-c2ccc(Cl)cc2)c2c(N)ncnc21: 7
- NC(=O)c1ccc(-c2nc(-c3ccccn3)c(-c3ccc4c(c3)OCCO4)[nH]2)cc1: 5
- CCN(CC)CCCCN1c2ccccc2Oc2ccc(Cl)cc21: 0
- Cc1cc2nc3c(=O)[nH]c(=O)nc-3n(C)c2cc1C=O: 1
- c1ccc(-c2n[nH]cc2-c2ccnc3ccccc23)nc1: 0
- O=S(=O)(c1cccc2cnccc12)N1CCCNCC1: 0
- CN(C)CCCn1cc(C2=C(c3c[nH]c4ccccc34)C(=O)NC2=O)c2ccccc21: 32
- O=C(NC(NC(=S)Nc1ccc(F)c([N+](=O)[O-])c1)C(Cl)(Cl)Cl)C(c1ccccc1)c1ccccc1 (configuration not stated): 4
- O=S(=O)(c1cccc2c(O)nccc12)N1CCCNCC1: 0
- O=C1NC(=O)C(c2ccccc2[N+](=O)[O-])=C1Nc1ccc(O)c(Cl)c1: 9
- N#C/C(=C(/N)Sc1ccc(N)cc1)c1ccccc1C(F)(F)F: 0
- Cc1ccc(NC(=O)c2cccc(N(C)C)c2)cc1NC(=O)c1ccc(O)cc1: 0
- O=C1NC(=O)c2c1c1c3ccccc3n3c1c1c2c2ccccc2n1C1CCC3O1: 80
- Nc1ccc(-c2cccc3c(=O)cc(N4CCOCC4)oc23)cc1: 0
- NC(=O)c1sc(-c2ccsc2)cc1N: 24
- N#C/C(=C\c1ccc(O)c(O)c1)C(N)=S: 0
- CC(C)[C@H](CO)Nc1nc(Nc2cc(N)cc(Cl)c2)c2ncn(C(C)C)c2n1: 55
- CN1CC[C@H](c2c(O)cc(O)c3c(=O)cc(-c4ccccc4Cl)oc23)[C@H](O)C1: 2
- O=c1cc(N2CCOCC2)oc2c1ccc1ccccc12: 0
- O=c1cc(N2CCOCC2)oc2c(-c3ccccc3)cccc12: 0

Reference source for all entries: the kinase profiling compilation of Christmann-Franck et al. (2016)
